The reported measurements were obtained from paper PMC12587545.

The entries below come with measured MICantibiotic + compound values attached.
- Tested on: P. aeruginosa
- methodDescription: Checkerboard assay (antibiotic potentiation)
- Format: cell-based, Pseudomonas aeruginosa
- testConditions: P. aeruginosa 259-96916; antibiotic MIC with 8 µg/mL (5 µM) compound 1

{"columns": ["smi", "MICantibiotic + compound"],
 "data": [
  ["CN(C)c1ccc(O)c2c1C[C@H]1C[C@H]3[C@H](N(C)C)C(O)=C(C(N)=O)C(=O)[C@@]3(O)C(O)=C1C2=O", "0.5 µg/mL"],
  ["C[C@H]1COc2c(N3CCN(C)CC3)c(F)cc3c(=O)c(C(=O)O)cn1c23", "16 µg/mL"],
  ["CC(C)(O/N=C(\\C(=O)N[C@@H]1C(=O)N2C(C(=O)[O-])=C(C[n+]3ccccc3)CS[C@H]12)c1csc(N)n1)C(=O)O", "16 µg/mL"],
  ["CO[C@H]1/C=C/O[C@@]2(C)Oc3c(C)c(O)c4c(O)c(c(/C=N/N5CCN(C)CC5)c(O)c4c3C2=O)NC(=O)/C(C)=C\\C=C\\[C@H](C)[C@H](O)[C@@H](C)[C@@H](O)[C@@H](C)[C@H](OC(C)=O)[C@@H]1C", "0.031 µg/mL"]
]}
